# maps each entry to its MRT
Experiment: i.v. pharmacokinetics in rats
Format: in vivo
Details: plasma; rat, 1.0 mg/kg iv; read-out: Mean Residence Time (converted)
Field: numeric (min). Do not append units.

molecule	MRT / min
COCCC[C@H](NC(=O)[C@@H]1CCCN1C(=O)[C@@H](Cc1ccccc1)NC(=O)OCc1ccccc1)B1OC(C)(C)C(C)(C)O1 [TRI 50b, Cbz-(R)-Phe-Pro-BoroMpg-OPinacol]	46

input: Quick one: MRT of COCCC[C@H](NC(=O)[C@@H]1CCCN1C(=O)[C@@H](Cc1ccccc1)NC(=O)OCc1ccccc1)B(O)O [TRI 50c, Cbz-(R)-Phe-(S)-Pro-(R)-boroMpg-OH] ?
output: 45

###

Test: i.v. pharmacokinetics in rats
Format: in vivo
Details: plasma; rat, 1.0 mg/kg iv; read-out: Elimination half life
readout: half-life (min)
Field: numeric (min). Do not append units.

compound	half-life, min
COCCC[C@H](NC(=O)[C@@H]1CCCN1C(=O)[C@@H](Cc1ccccc1)NC(=O)OCc1ccccc1)B(O)O [TRI 50c, Cbz-(R)-Phe-(S)-Pro-(R)-boroMpg-OH]	36.6

input: Quick one: half-life of COCCC[C@H](NC(=O)[C@@H]1CCCN1C(=O)[C@@H](Cc1ccccc1)NC(=O)OCc1ccccc1)B1OC(C)(C)C(C)(C)O1 [TRI 50b, Cbz-(R)-Phe-Pro-BoroMpg-OPinacol] ?
output: 35

###

Test: i.v. pharmacokinetics in rats
Type: in vivo
Details: plasma; rat, 1.0 mg/kg iv
# maps each entry to its clearance
Field: numeric (mL/min/kg). Do not append units.

molecule	clearance / mL/min/kg
COCCC[C@H](NC(=O)[C@@H]1CCCN1C(=O)[C@@H](Cc1ccccc1)NC(=O)OCc1ccccc1)B(O)O [TRI 50c, Cbz-(R)-Phe-(S)-Pro-(R)-boroMpg-OH]	11.3

Please examine the following record next.
input: Quick one: clearance of COCCC[C@H](NC(=O)[C@@H]1CCCN1C(=O)[C@@H](Cc1ccccc1)NC(=O)OCc1ccccc1)B1OC(C)(C)C(C)(C)O1 [TRI 50b, Cbz-(R)-Phe-Pro-BoroMpg-OPinacol] ?
output: 10
